Catalogue of log10 IC50 values
# testSystem: Sepiapterin reductase (Homo sapiens, UniProt P35270)
# Sequence (P35270 whole entry): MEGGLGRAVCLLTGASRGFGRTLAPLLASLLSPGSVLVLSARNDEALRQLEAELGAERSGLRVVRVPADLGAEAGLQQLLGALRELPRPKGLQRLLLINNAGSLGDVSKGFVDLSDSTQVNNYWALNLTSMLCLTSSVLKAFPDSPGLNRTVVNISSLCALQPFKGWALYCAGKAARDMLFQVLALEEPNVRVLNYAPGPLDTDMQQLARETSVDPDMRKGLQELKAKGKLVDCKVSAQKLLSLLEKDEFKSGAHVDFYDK
# measurementProtocol: Inhibition of sepiapterin reductase (unknown origin)
# experimentalConditions: read-out: pIC50 (converted)
Reminder: these figures are log10 of reported IC50, in µM before transformation.

Recall the recorded log10 IC50 for "COc1cc(C(F)(F)F)ccc1-c1nc(Cl)cc2cc(S(=O)(=O)Nc3nccs3)ccc12" with Sepiapterin reductase (Homo sapiens, UniProt P35270) and state it.
0.25

Now give it for "Cc1nn(-c2ccccn2)c2ncc(C(=O)c3ccccc3O)cc12" too.
-1.18

###

# testSystem: Sepiapterin reductase (Homo sapiens, UniProt P35270)
# measurementProtocol: Inhibition of sepiapterin reductase (unknown origin)
# experimentalConditions: read-out: IC50
Quick reference: IC50 of the listed items.

Cc1ccc(-n2nc(C)c3cc(C(=O)c4cc(C)ccc4O)cnc32)cc1 :: > 19 µM
Cc1nn(-c2ccccn2)c2ncc(C(=O)O)cc12 :: > 19 µM
Cc1nn(-c2ccccn2)c2ncc(C(=O)N(C)C)cc12 :: > 19 µM
Cc1ccc(O)c(C(=O)c2cnc3c(c2)c(C)nn3-c2ccc(F)cc2)c1 :: > 19 µM
Cc1ccc(O)c(C(=O)c2cnc3c(c2)c(C)nn3-c2ccccc2)c1 :: > 19 µM

Could you now consider this next compound?
Given "COc1ccc(O)c(C(=O)c2cnc3c(c2)c(C)nn3-c2cccc(Cl)c2)c1" , state its recorded IC50.
> 19 µM
